# procedureText: Metabolic stability in human liver microsomes assessed as intrinsic clearance
# Format: ADME, Microsome
# runConditions: read-out: CLH
Some molecules, each annotated with its measured microsomal CLint.

# smiles, microsomal CLint
records = [
    ("CC/C(=C\\c1ccccc1)[C@@H]1C[C@H]1NC1CC2(CNC2)C1", "11 µL/min/mg"),
    ("CC/C(=C\\c1ccccc1)[C@@H]1C[C@H]1NC1CC2(C1)CN(C(C)=O)C2", "18 µL/min/mg"),
    ("CC/C(=C\\c1ccccc1)[C@@H]1C[C@H]1NC1CC2(C1)CN(CCO)C2", "9 µL/min/mg"),
    ("CC/C(=C\\c1ccccc1)[C@@H]1C[C@H]1NC1CC2(C1)CN(C1COC1)C2", "49 µL/min/mg"),
    ("CC/C(=C\\c1ccccc1)[C@@H]1C[C@H]1NC1CC2(CCN(CCO)CC2)C1", "10 µL/min/mg"),
    ("CC/C(=C\\c1ccccc1)[C@@H]1C[C@H]1NC1CC2(C1)CN(S(C)(=O)=O)C2", "67 µL/min/mg"),
    ("CC/C(=C\\c1ccccc1)[C@@H]1C[C@H]1NC1CC2(C1)CN(CC(F)F)C2", "133 µL/min/mg"),
    ("CC/C(=C\\c1ccccc1)[C@@H]1C[C@H]1NC1CCN(CCO)CC1", "41 µL/min/mg"),
]
